Tested on: MCF-7 (Breast)
experimental protocol: Cytotoxicity, MTT assay, MCF-7
Assay type: cell-based
measurement setup: Homo sapiens, MCF7
readout name: pIC50
Note on units: pIC50 is unitless, being -log10 of a concentration expressed in mol/L.

Recall the recorded pIC50 for CN1CCC(c2c(O)cc(O)c3c(=O)cc(/C=C/c4c(Cl)cccc4Cl)oc23)C(O)C1 (stereo not drawn) with MCF-7 (Breast) and state it.
5.40

Recall the recorded pIC50 for CN1CCC(c2c(O)cc(O)c3c(=O)cc(/C=C/c4cccc(Cl)c4)oc23)C(O)C1 (stereo not drawn) with MCF-7 (Breast) and state it.
5.70
